Substrate: CCCCCCCCCC(=O)Oc1ccc([N+](=O)[O-])cc1
Test: pNP ester hydrolysis, Lineweaver-Burk
Assay type: biochemical, Bacillus sp. L2
Conditions: 70 °C (optimum temperature), 0.6-5.0 mM substrate
metric-name: kcat (s⁻¹)
Reply with just the number (in s⁻¹).

wt-L2 lipase (Bacillus sp. L2; A36E) (protein, recombinant from pET32(B)+ in E. coli BL21(DE3), Ni Sepharose purified) ASLRANDEPIVLLHGFTGWGREEMFGFKYWGGVRGDIEQWLNDNGYRTYTLAVGPLSSNWDRACEAYAQLVGGTVDYGAAHAAKHGHARFGRTYPGLLPELKRGGRIHIIAHSQGGQTARMLVSLLENGSQEEREYAKAHNVSLSPLFEGGHHFVLSVTTIATPHDGTTLVNMVDFTDRFFDLQKAVLEAAAVASNVPYTSQVYDFKLDQWGLRRQPGESFDHYFERLKRSPVWTSTDTARYDLSVSGAEKLNQWVQASPNTYYLSFSTERTYRGALTGNHYPELGMNAFSAVVCAPFLGSYRNPTLGIDDRWLENDGIVNTVSMNGPKRGSSDRIVPYDGTLKKGVWNDMGTYNVDHLEIIGVDPNPSFDIRAFYLRLAEQLASLLP; 120
wt-L2 lipase (Bacillus sp. L2; A36P) (protein, recombinant from pET32(B)+ in E. coli BL21(DE3), Ni Sepharose purified) ASLRANDPPIVLLHGFTGWGREEMFGFKYWGGVRGDIEQWLNDNGYRTYTLAVGPLSSNWDRACEAYAQLVGGTVDYGAAHAAKHGHARFGRTYPGLLPELKRGGRIHIIAHSQGGQTARMLVSLLENGSQEEREYAKAHNVSLSPLFEGGHHFVLSVTTIATPHDGTTLVNMVDFTDRFFDLQKAVLEAAAVASNVPYTSQVYDFKLDQWGLRRQPGESFDHYFERLKRSPVWTSTDTARYDLSVSGAEKLNQWVQASPNTYYLSFSTERTYRGALTGNHYPELGMNAFSAVVCAPFLGSYRNPTLGIDDRWLENDGIVNTVSMNGPKRGSSDRIVPYDGTLKKGVWNDMGTYNVDHLEIIGVDPNPSFDIRAFYLRLAEQLASLLP; 127
wt-L2 lipase (Bacillus sp. L2) (protein, recombinant from pET32(B)+ in E. coli BL21(DE3), Ni Sepharose purified) ASLRANDAPIVLLHGFTGWGREEMFGFKYWGGVRGDIEQWLNDNGYRTYTLAVGPLSSNWDRACEAYAQLVGGTVDYGAAHAAKHGHARFGRTYPGLLPELKRGGRIHIIAHSQGGQTARMLVSLLENGSQEEREYAKAHNVSLSPLFEGGHHFVLSVTTIATPHDGTTLVNMVDFTDRFFDLQKAVLEAAAVASNVPYTSQVYDFKLDQWGLRRQPGESFDHYFERLKRSPVWTSTDTARYDLSVSGAEKLNQWVQASPNTYYLSFSTERTYRGALTGNHYPELGMNAFSAVVCAPFLGSYRNPTLGIDDRWLENDGIVNTVSMNGPKRGSSDRIVPYDGTLKKGVWNDMGTYNVDHLEIIGVDPNPSFDIRAFYLRLAEQLASLLP; 175

Okay, now this protein:
(Q) Can you look up the measured kcat of wt-L2 lipase (Bacillus sp. L2; A36V) (protein, recombinant from pET32(B)+ in E. coli BL21(DE3), Ni Sepharose purified) ASLRANDVPIVLLHGFTGWGREEMFGFKYWGGVRGDIEQWLNDNGYRTYTLAVGPLSSNWDRACEAYAQLVGGTVDYGAAHAAKHGHARFGRTYPGLLPELKRGGRIHIIAHSQGGQTARMLVSLLENGSQEEREYAKAHNVSLSPLFEGGHHFVLSVTTIATPHDGTTLVNMVDFTDRFFDLQKAVLEAAAVASNVPYTSQVYDFKLDQWGLRRQPGESFDHYFERLKRSPVWTSTDTARYDLSVSGAEKLNQWVQASPNTYYLSFSTERTYRGALTGNHYPELGMNAFSAVVCAPFLGSYRNPTLGIDDRWLENDGIVNTVSMNGPKRGSSDRIVPYDGTLKKGVWNDMGTYNVDHLEIIGVDPNPSFDIRAFYLRLAEQLASLLP for me?
(A) 136
